molecular target: HLA class I molecule A*0201 (Homo sapiens, UniProt P04439, D140Y/D185E/D98H/E176V/E277Q/G131W/G231S/I119V/I121R/I166T/I218V/L300P/L318F/N151K/N90K/P208A/P217A/Q86G/Q94H/R138H/R169H/T345S); construct: purchased ProImmune Ltd., Oxford, UK; type: binding; settings: REVEAL assay, assembly of peptide-HLA complex by ELISA with conformation-dependent anti-HLA antibody, relative to positive control peptide for that allele, comparable within an allele only
Class (by Score (experimentally measured binding affinity, % binding compared to control peptide)) -- lower bin: < 20%; middle bin: ≥ 20% and < 50%; upper bin: ≥ 50%

The following sequences have reported results that may help.
Class? Entry: ASGLFRCLP [HTLV-1 nonamer peptide]
lower bin

Class? Entry: IALETPARI [HTLV-1 nonamer peptide]
lower bin

Class? Entry: AAHHWLNFL [HTLV-1 nonamer peptide]
lower bin

Class? Entry: GIDGYTRQL [HTLV-1 nonamer peptide]
middle bin

Class? Entry: QLEGEVESL [HTLV-1 nonamer peptide]
lower bin

Class? Entry: LLQEKEDLM [HTLV-1 nonamer peptide]
middle bin

Class? Entry: KISLTTGAL [HTLV-1 nonamer peptide]
lower bin

Class? Entry: SLVQLRQAL [HTLV-1 nonamer peptide]
lower bin

---
Class? Entry: YISQDFLNM [HTLV-1 nonamer peptide]
lower bin

Class? Entry: QLLASAVLL [HTLV-1 nonamer peptide]
upper bin

Class? Entry: TLYRLHVWV [HTLV-1 nonamer peptide]
upper bin

Class? Entry: LMGEVNYWQ [HTLV-1 nonamer peptide]
lower bin

Class? Entry: ELVDGLLSL [HTLV-1 nonamer peptide]
middle bin

Class? Entry: QLGAFLTNV [HTLV-1 nonamer peptide]
upper bin

Class? Entry: FMQTIRLAV [HTLV-1 nonamer peptide from Gag]
upper bin

Class? Entry: AVLDGLLSL [HTLV-1 nonamer peptide]
upper bin

Class? Entry: QLWLAAFAA [HTLV-1 nonamer peptide]
upper bin

Class? Entry: HQLKKFLKI [HTLV-1 nonamer peptide]
lower bin

----------
target: HLA class I molecule B*0702 (Homo sapiens); construct: purchased ProImmune Ltd., Oxford, UK; test: REVEAL HLA-peptide binding assay, B*0702; set-up: concentration or dose not given beside the values; details: assembly of peptide-HLA complex by ELISA with conformation-dependent anti-HLA antibody, relative to positive control peptide for that allele, comparable within an allele only
observed_property: Score (experimentally measured binding affinity, % binding compared to control peptide) (%)
State just the number; it will be interpreted in %.

Check out these entries, answers already filled in.
For the sequence RGRLRRGPP [HTLV-1 nonamer peptide] , what Score (experimentally measured binding affinity, % binding compared to control peptide) is on record?
1.21

For the sequence QPARAPVTL [HTLV-1 nonamer peptide] , what Score (experimentally measured binding affinity, % binding compared to control peptide) is on record?
135.43

For the sequence VPIRSRWAL [HTLV-1 nonamer peptide] , what Score (experimentally measured binding affinity, % binding compared to control peptide) is on record?
125.64

For the sequence RPAPPPPSS [HTLV-1 nonamer peptide] , what Score (experimentally measured binding affinity, % binding compared to control peptide) is on record?
93.08

For the sequence YPGRVNEIL [HTLV-1 nonamer peptide] , what Score (experimentally measured binding affinity, % binding compared to control peptide) is on record?
158.86

--- query ---
For the sequence ASGLFRCLP [HTLV-1 nonamer peptide] , what Score (experimentally measured binding affinity, % binding compared to control peptide) is on record?
2

----------
target: HLA class I molecule B*3501 (Homo sapiens, UniProt P01889, A329T/A93T/A95T/C349S/D201E/D98Y/E176V/E187L/E204Q/E69T/I218V/K202T/L119I/Q94N/R155S/R180L/S121R/S35A/S48A/T118I/V127L/V306I/V36M/Y140S/Y91F); assay: REVEAL HLA-peptide binding assay, B*3501; conditions: assembly of peptide-HLA complex by ELISA with conformation-dependent anti-HLA antibody, relative to positive control peptide for that allele, comparable within an allele only
observed_property: Score (experimentally measured binding affinity, % binding compared to control peptide)

For the sequence LPVSCPEDL [HTLV-1 nonamer peptide] , what Score (experimentally measured binding affinity, % binding compared to control peptide) is on record?
74.86%

---
For the sequence NFLQAAYRL [HTLV-1 nonamer peptide] , what Score (experimentally measured binding affinity, % binding compared to control peptide) is on record?
3.16%

For the sequence WALPELQAL [HTLV-1 nonamer peptide] , what Score (experimentally measured binding affinity, % binding compared to control peptide) is on record?
73.45%

For the sequence RVIGSALQF [HTLV-1 nonamer peptide] , what Score (experimentally measured binding affinity, % binding compared to control peptide) is on record?
42.94%

----------
Listed here: items and their measured Score (experimentally measured binding affinity, % binding compared to control peptide).
target: HLA class I molecule A*2402 (Homo sapiens, UniProt P04439, D101N/D140Y/D185E/E176V/E190D/F33S/G103R/G107R/I119L/I121M/I306V/K335N/L105A/L180Q/L300P/N151K/N90K/Q86E/Q94H/R106L/R138H/R89G/T104I/T345S/V100E/W191G/Y123F); construct: purchased ProImmune Ltd., Oxford, UK; format: binding; settings: REVEAL assay, assembly of peptide-HLA complex by ELISA with conformation-dependent anti-HLA antibody, relative to positive control peptide for that allele, comparable within an allele only
State just the number; it will be interpreted in %.

Check out these entries, answers already filled in.
For the sequence LAAHHWLNF [HTLV-1 nonamer peptide] , what Score (experimentally measured binding affinity, % binding compared to control peptide) is on record?
35.91

For the sequence EKAVLDGLL [HTLV-1 nonamer peptide] , what Score (experimentally measured binding affinity, % binding compared to control peptide) is on record?
0

For the sequence KYTLQSYGL [HTLV-1 nonamer peptide] , what Score (experimentally measured binding affinity, % binding compared to control peptide) is on record?
104.78

For the sequence SFLLSHGLI [HTLV-1 nonamer peptide] , what Score (experimentally measured binding affinity, % binding compared to control peptide) is on record?
79.27

For the sequence HQLKKFLKI [HTLV-1 nonamer peptide] , what Score (experimentally measured binding affinity, % binding compared to control peptide) is on record?
46.49

---
For the sequence IQYSSFHSL [HTLV-1 nonamer peptide] , what Score (experimentally measured binding affinity, % binding compared to control peptide) is on record?
87.52

For the sequence STLTTPGLI [HTLV-1 nonamer peptide] , what Score (experimentally measured binding affinity, % binding compared to control peptide) is on record?
0

For the sequence WQGRLEAMW [HTLV-1 nonamer peptide] , what Score (experimentally measured binding affinity, % binding compared to control peptide) is on record?
2.54

For the sequence VLQSSSFIF [HTLV-1 nonamer peptide] , what Score (experimentally measured binding affinity, % binding compared to control peptide) is on record?
82.42

For the sequence GFGQSLLFG [HTLV-1 nonamer peptide] , what Score (experimentally measured binding affinity, % binding compared to control peptide) is on record?
1.06

For the sequence RICPINYSL [HTLV-1 nonamer peptide] , what Score (experimentally measured binding affinity, % binding compared to control peptide) is on record?
77.87

For the sequence SAQWIPWRL [HTLV-1 nonamer peptide] , what Score (experimentally measured binding affinity, % binding compared to control peptide) is on record?
27.07

----------
Listed here: items and their measured Score (experimentally measured binding affinity, % binding compared to control peptide).
target: HLA class I molecule B*0702 (Homo sapiens, UniProt P01889); construct: purchased ProImmune Ltd., Oxford, UK; experiment: REVEAL HLA-peptide binding assay, B*0702; design: concentration or dose not given beside the values; conditions: assembly of peptide-HLA complex by ELISA with conformation-dependent anti-HLA antibody, relative to positive control peptide for that allele, comparable within an allele only
State just the number; it will be interpreted in %.

Check out these entries, answers already filled in.
Item SAQWIPWRL [HTLV-1 nonamer peptide] with HLA class I molecule B*0702 (Homo sapiens, UniProt P01889) - Score (experimentally measured binding affinity, % binding compared to control peptide)?
0

Item FPGFGQSLL [HTLV-1 nonamer peptide] with HLA class I molecule B*0702 (Homo sapiens, UniProt P01889) - Score (experimentally measured binding affinity, % binding compared to control peptide)?
102.99

Item FVERLNIAL [HTLV-1 nonamer peptide] with HLA class I molecule B*0702 (Homo sapiens, UniProt P01889) - Score (experimentally measured binding affinity, % binding compared to control peptide)?
104.14

--- query ---
Item LPFHSTLTT [HTLV-1 nonamer peptide] with HLA class I molecule B*0702 (Homo sapiens, UniProt P01889) - Score (experimentally measured binding affinity, % binding compared to control peptide)?
97.77

Reference for the values: paper PMC2944806
